target: human recombinant adrenergic α2C receptor (Homo sapiens, UniProt P18825); construct: expressed in transfected cells; host or cells: insect Sf9 cells; experiment: Adrenergic α2C radioligand binding ([3H]MK-912); details: read-out: Adrenergic (0.1 μM) a2C, percent inhibition of specific binding; compound at 0.1 μM; 1 nM [3H]MK-912
Sequence (P18825 whole entry): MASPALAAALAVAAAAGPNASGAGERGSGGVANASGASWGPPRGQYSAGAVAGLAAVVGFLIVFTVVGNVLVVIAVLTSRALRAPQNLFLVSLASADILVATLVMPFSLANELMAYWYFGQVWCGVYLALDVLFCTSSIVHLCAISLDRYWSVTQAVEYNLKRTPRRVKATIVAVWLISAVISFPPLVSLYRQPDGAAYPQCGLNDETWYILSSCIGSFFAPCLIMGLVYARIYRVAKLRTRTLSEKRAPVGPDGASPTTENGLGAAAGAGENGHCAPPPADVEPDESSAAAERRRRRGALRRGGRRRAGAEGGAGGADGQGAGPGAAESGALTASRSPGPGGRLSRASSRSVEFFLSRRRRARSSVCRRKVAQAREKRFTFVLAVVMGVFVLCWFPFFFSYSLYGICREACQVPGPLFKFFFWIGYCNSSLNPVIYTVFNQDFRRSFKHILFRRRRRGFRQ
propertyLabel: inhibition at 0.1 µM (%)
Numeric answer only, unit % assumed.

[
  {
    "cpdSmiles": "Cc1ccc2c(c1)c1c(n2-c2cscc2-c2ccc(F)nc2)CCN(C)C1",
    "tgt": "human recombinant adrenergic α2C receptor (Homo sapiens, UniProt P18825)",
    "propertyLabel": "inhibition at 0.1 µM",
    "resultUnits": "%",
    "testValue": 47
  },
  {
    "cpdSmiles": "Cc1ccc2c(c1)c1c(n2-c2ccc(-c3ccnn3C)cn2)CCN(C)C1",
    "tgt": "human recombinant adrenergic α2C receptor (Homo sapiens, UniProt P18825)",
    "propertyLabel": "inhibition at 0.1 µM",
    "resultUnits": "%",
    "testValue": -1
  },
  {
    "cpdSmiles": "Cc1ccc2c(c1)c1c(n2-c2cccc(-c3ccc(C)nc3)c2)CCN(C)C1",
    "tgt": "human recombinant adrenergic α2C receptor (Homo sapiens, UniProt P18825)",
    "propertyLabel": "inhibition at 0.1 µM",
    "resultUnits": "%",
    "testValue": 21
  },
  {
    "cpdSmiles": "Cc1ccc2c(c1)c1c(n2-c2ccccc2-c2cn[nH]c2)CCN(C)C1",
    "tgt": "human recombinant adrenergic α2C receptor (Homo sapiens, UniProt P18825)",
    "propertyLabel": "inhibition at 0.1 µM",
    "resultUnits": "%",
    "testValue": 1
  },
  {
    "cpdSmiles": "Cc1ccc2c(c1)c1c(n2-c2cscc2-c2sccc2C)CCN(C)C1",
    "tgt": "human recombinant adrenergic α2C receptor (Homo sapiens, UniProt P18825)",
    "propertyLabel": "inhibition at 0.1 µM",
    "resultUnits": "%",
    "testValue": 50
  },
  {
    "cpdSmiles": "Cc1ccc2c(c1)c1c(n2-c2ccc(-c3cnn(C)c3)cn2)CCN(C)C1",
    "tgt": "human recombinant adrenergic α2C receptor (Homo sapiens, UniProt P18825)",
    "propertyLabel": "inhibition at 0.1 µM",
    "resultUnits": "%",
    "testValue": -2
  },
  {
    "cpdSmiles": "Cc1ccc2c(c1)c1c(n2-c2cscc2-c2ccnn2C)CCN(C)C1",
    "tgt": "human recombinant adrenergic α2C receptor (Homo sapiens, UniProt P18825)",
    "propertyLabel": "inhibition at 0.1 µM",
    "resultUnits": "%",
    "testValue": 10
  },
  {
    "cpdSmiles": "Cc1ccc2c(c1)c1c(n2-c2ccsc2)CCN(C)C1",
    "tgt": "human recombinant adrenergic α2C receptor (Homo sapiens, UniProt P18825)",
    "propertyLabel": "inhibition at 0.1 µM",
    "resultUnits": "%",
    "testValue": 4
  }
]

Attention now shifts to the item below.
Query inhibition at 0.1 µM for Cc1ccc2c(c1)c1c(n2-c2ccc(-c3c(C)noc3C)cn2)CCN(C)C1 -1

---

Target: human recombinant adrenergic α2C receptor (Homo sapiens, UniProt P18825)
Construct: expressed in transfected cells; host or cells: insect Sf9 cells
Experiment: Adrenergic α2C radioligand binding ([3H]MK-912)
Settings: read-out: Adrenergic (0.1 μM) a2C, percent inhibition of specific binding; compound at 0.1 μM; 1 nM [3H]MK-912
Experimental: To evaluate in radioligand binding assays the activity of compounds of the invention, human recombinant adrenergic α2C receptor expressed in insect Sf9 cells (Uhlen, S. et al, J. Pharmacol. Exp. Ther. 271:1558, 1994) in a modified Tris-HCl buffer (50 mM Tris-HCl, pH 7.4, 12.5 mM MgCl2, 2 mM EDTA) was used. […] Receptor proteins were filtered and washed, the filters were then counted to determine [^3H]MK-912 specifically bound. […]
The compounds listed here are annotated with their inhibition at 0.1 µM.
Numeric answer only, unit % assumed.

[
  {
    "compound": "Cc1ccc2c(c1)c1c(n2-c2cscc2-c2ccc(S(C)(=O)=O)cc2)CCN(C)C1 [Compound No. 76]",
    "tgt": "human recombinant adrenergic α2C receptor (Homo sapiens, UniProt P18825)",
    "testValue": 79
  },
  {
    "compound": "CNC(=O)c1ccc(-c2cscc2-n2c3c(c4cc(C)ccc42)CN(C)CC3)cn1 [Compound No. 73]",
    "tgt": "human recombinant adrenergic α2C receptor (Homo sapiens, UniProt P18825)",
    "testValue": 2
  },
  {
    "compound": "Cc1ccc2c(c1)c1c(n2-c2ccc(-c3ccncc3)cn2)CCN(C)C1 [Compound No. 132]",
    "tgt": "human recombinant adrenergic α2C receptor (Homo sapiens, UniProt P18825)",
    "testValue": -2
  },
  {
    "compound": "Cc1ccc2c(c1)c1c(n2-c2cccc3ccncc23)CCN(C)C1 [Compound 58]",
    "tgt": "human recombinant adrenergic α2C receptor (Homo sapiens, UniProt P18825)",
    "testValue": -1
  },
  {
    "compound": "Cc1ccc2c(c1)c1c(n2-c2cccc(-c3c(C)noc3C)c2)CCN(C)C1 [Compound No. 65]",
    "tgt": "human recombinant adrenergic α2C receptor (Homo sapiens, UniProt P18825)",
    "testValue": 8
  },
  {
    "compound": "Cc1ccc2c(c1)c1c(n2-c2ccc3c(c2)CCN(C=O)C3)CCN(C)C1 [Compound No. 77]",
    "tgt": "human recombinant adrenergic α2C receptor (Homo sapiens, UniProt P18825)",
    "testValue": 0
  },
  {
    "compound": "Cc1ccc2c(c1)c1c(n2-c2cccc(-c3cnc(N(C)C)nc3)c2)CCN(C)C1 [Compound 42]",
    "tgt": "human recombinant adrenergic α2C receptor (Homo sapiens, UniProt P18825)",
    "testValue": -11
  }
]

Attention now shifts to the item below.
Query inhibition at 0.1 µM for Cc1csc(-c2ccccc2-n2c3c(c4cc(C)ccc42)CN(C)CC3)c1 [Compound 36] 67

---

The compounds listed here are annotated with their inhibition at 0.1 µM.
Target: human recombinant serotonin (5-Hydroxytryptamine) 5-HT2C receptor (Homo sapiens)
Construct: expressed in transfected cells; host or cells: CHO-K1
Sequence (P28335 33-458): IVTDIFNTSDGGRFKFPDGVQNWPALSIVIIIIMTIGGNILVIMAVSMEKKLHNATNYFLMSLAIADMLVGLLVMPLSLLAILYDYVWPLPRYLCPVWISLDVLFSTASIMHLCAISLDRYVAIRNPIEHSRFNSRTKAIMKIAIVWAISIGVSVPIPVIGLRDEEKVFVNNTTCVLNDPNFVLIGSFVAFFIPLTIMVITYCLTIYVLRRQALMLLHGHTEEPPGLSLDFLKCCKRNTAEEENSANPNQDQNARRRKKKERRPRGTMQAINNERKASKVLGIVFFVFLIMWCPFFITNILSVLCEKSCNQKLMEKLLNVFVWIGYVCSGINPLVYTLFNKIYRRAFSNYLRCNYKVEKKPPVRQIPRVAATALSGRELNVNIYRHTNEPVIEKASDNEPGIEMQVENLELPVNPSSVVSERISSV
Assay: Serotonin 5-HT2C radioligand binding ([3H]Mesulergine)
Conditions: compound at 0.1 μM; read-out: Inhibition of ligand binding, Serotonin 5-HT2C (percent inhibition of specific binding)
Procedure: Compounds of the invention were incubated with 1 nM [^3H]Mesulergine for 60 min at 25° C. Non-specific binding was estimated in the presence of 1 μM Mianserin. Receptor proteins were filtered and washed, the filters were then counted to determine [^3H]Mesulergine specifically bound.
Numeric answer only, unit % assumed.

Some solved entries appear below for comparison.
[
  {
    "cpdSmiles": "Cc1ccc2c(c1)c1c(n2-c2ccccc2-c2cc3ccccc3s2)CCN(C)C1",
    "testValue": 43
  },
  {
    "cpdSmiles": "Cc1ccc2c(c1)c1c(n2-c2cccc(-c3cn[nH]c3)c2)CCN(C)C1",
    "testValue": 81
  },
  {
    "cpdSmiles": "Cc1ccc2c(c1)c1c(n2-c2ccccc2-c2sccc2C)CCN(C)C1",
    "testValue": 90
  },
  {
    "cpdSmiles": "Cc1ccc2c(c1)c1c(n2-c2ccccc2-c2c(C)noc2C)CCN(C)C1",
    "testValue": 68
  },
  {
    "cpdSmiles": "Cc1ccc2c(c1)c1c(n2-c2cccs2)CCN(C)C1",
    "testValue": 89
  }
]

Query inhibition at 0.1 µM for Cc1ccc2c(c1)c1c(n2-c2ccc(-c3ccc(C)nc3)cn2)CCN(C)C1 96

Query inhibition at 0.1 µM for Cc1ccc2c(c1)c1c(n2-c2cccc(N(C)C)c2)CCN(C)C1 42

Query inhibition at 0.1 µM for Cc1ccc2c(c1)c1c(n2-c2ccc(-c3sccc3C)cn2)CCN(C)C1 88

---

target: human recombinant dopamine D2L receptor (Homo sapiens, UniProt P14416); construct: expressed in transfected cells; host or cells: CHO; experiment: Dopamine D2L radioligand binding ([3H]Spiperone); details: read-out: Dopamine D2L (1 μM), percent inhibition of specific binding; compound at 1 μM; 0.16 nM [3H]Spiperone
Sequence (P14416 whole entry): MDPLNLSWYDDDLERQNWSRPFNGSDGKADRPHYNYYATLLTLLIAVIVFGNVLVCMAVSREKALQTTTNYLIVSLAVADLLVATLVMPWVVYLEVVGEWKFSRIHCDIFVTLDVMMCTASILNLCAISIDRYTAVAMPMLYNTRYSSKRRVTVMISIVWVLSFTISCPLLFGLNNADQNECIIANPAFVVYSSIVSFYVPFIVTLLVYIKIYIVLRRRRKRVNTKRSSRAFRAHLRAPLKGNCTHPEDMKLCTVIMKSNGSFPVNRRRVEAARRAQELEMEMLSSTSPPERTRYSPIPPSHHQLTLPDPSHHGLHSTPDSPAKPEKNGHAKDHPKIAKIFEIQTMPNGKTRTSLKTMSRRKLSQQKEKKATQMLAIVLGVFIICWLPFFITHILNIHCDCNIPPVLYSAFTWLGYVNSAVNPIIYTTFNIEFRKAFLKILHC
Decide using inhibition at 1 µM: a value greater than or equal to 20% is satisfied, a smaller one is not satisfied.

[
  {
    "cpdSmiles": "Cc1ccc2c(c1)c1c(n2-c2ccsc2)CCN(C)C1",
    "groupLabel": "satisfied"
  },
  {
    "cpdSmiles": "CC(=O)Nc1ccc(-c2ccccc2-n2c3c(c4cc(C)ccc42)CN(C)CC3)cn1",
    "groupLabel": "not satisfied"
  },
  {
    "cpdSmiles": "Cc1ccc2c(c1)c1c(n2-c2cscc2-c2ccccc2)CCN(C)C1",
    "groupLabel": "satisfied"
  },
  {
    "cpdSmiles": "Cc1ccc2c(c1)c1c(n2-c2ccc(-c3ccc(F)nc3)cn2)CCN(C)C1",
    "groupLabel": "not satisfied"
  },
  {
    "cpdSmiles": "Cc1ccc2c(c1)c1c(n2-c2cscc2-c2ccc3cnccc3c2)CCN(C)C1",
    "groupLabel": "not satisfied"
  }
]

Is it the case that Cc1ccc2c(c1)c1c(n2-c2cscc2-c2cccnc2)CCN(C)C1 has inhibition at 1 µM reaching or exceeding 20%? satisfied

Is it the case that Cc1ccc2c(c1)c1c(n2-c2cnc3ccccc3c2)CCN(C)C1 has inhibition at 1 µM reaching or exceeding 20%? not satisfied

Is it the case that Cc1ccc2c(c1)c1c(n2-c2cccc(-c3cn[nH]c3)c2)CCN(C)C1 has inhibition at 1 µM reaching or exceeding 20%? not satisfied
